# TESTED ON: HIV-1 envelope glycoprotein (gp120) of virus VS001 (HIV-1)
# ASSAY: cell-based or functional assay
Entries and their Neutralization IC50 values follow.

# BINDER, ENDPOINT UNIT, Neutralization IC50
records = [
    ("2.3.13-1 (antibody, human IgG1, kappa, V domains shown) VH: QVHLSQSGAAVTKPGASVRVSCEASGYNIRDYFIHWWRQAPGQGLQWVGWINPKTGQPNNPRQFQGRVSLTRHASWDFDTFSFYMDLKAVRSDDTAIYFCARQRSDYWDFDVWGSGTQVTVSS VL: DIQMTQSPSSLSARVGDRATITCQANGYLNWYQQRRGKAPKLLIYDGSKLERGVPARFSGSRWGQEYILTISSLQPEDVATYFCQVYEFFGPGTRLDLKR", "µg/mL", 1.5),
    ("1.1.102-1 (antibody, human IgG1, kappa, V domains shown) VH: QVQLLQSGAAVTKPGASVRVSCEASGYNIRDYFIHWWRQAPGQGLQWVGWINPKTGQPNNPRQFQGRVSLTRHASWDFDTFSFYMDLKALRSDDTAVYFCARQRSDYWDFDVWGSGTQVTVSS VL: DIQMTQSPSSLSASVGDRATITCQANGYLNWYQQRRGKAPKLLIYDGSKLERGVPSRFSGSRWGQEYHLTISSLQPEDIATYFCQVYEFFGPGTRLDLKR", "µg/mL", 3),
    ("3.1.12-1 (antibody, human IgG1, kappa, V domains shown) VH: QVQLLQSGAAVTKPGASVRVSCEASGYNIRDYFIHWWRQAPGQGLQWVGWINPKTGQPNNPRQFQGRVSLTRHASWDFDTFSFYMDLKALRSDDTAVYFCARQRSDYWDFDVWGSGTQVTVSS VL: DIQMTQSPSSLSARVGDTATITCQANGYLNWYQQRRGKAPKLLIYDGSKLERGVPARFSGRRWGQEYILTINNLQPEDVATYFCQVYEFFGPGTRLDLKR", "µg/mL", 2.41),
    ("2.3.12-1 (antibody, human IgG1, kappa, V domains shown) VH: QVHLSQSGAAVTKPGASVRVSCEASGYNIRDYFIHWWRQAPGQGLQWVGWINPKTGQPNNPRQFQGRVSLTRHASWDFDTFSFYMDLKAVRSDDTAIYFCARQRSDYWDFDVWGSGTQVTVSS VL: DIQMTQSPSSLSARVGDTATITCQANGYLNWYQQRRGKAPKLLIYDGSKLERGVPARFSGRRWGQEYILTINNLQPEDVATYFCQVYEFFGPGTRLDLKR", "µg/mL", 1.92),
    ("3.1.13-1 (antibody, human IgG1, kappa, V domains shown) VH: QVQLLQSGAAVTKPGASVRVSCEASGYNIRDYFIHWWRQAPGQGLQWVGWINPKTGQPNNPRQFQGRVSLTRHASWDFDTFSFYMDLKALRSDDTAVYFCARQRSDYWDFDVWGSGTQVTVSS VL: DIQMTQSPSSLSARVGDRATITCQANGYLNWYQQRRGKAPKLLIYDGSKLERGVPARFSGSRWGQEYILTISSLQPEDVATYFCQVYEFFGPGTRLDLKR", "µg/mL", 0.56),
    ("2.2.18-1 (antibody, human IgG1, kappa, V domains shown) VH: QVHLSQSGAAVTKPGASVRVSCEASGYKIRDHFIHWWRQAPGQGLQWVGWINPKTGQPNNPRQFQGRVSLTRHASWDFDTFSFYMDLKAVRSDDTAIYFCARQRSDYWDFDVWGSGTQVTVSS VL: DIQMTQSPSSLSARVGDRATITCQANGYLNWYQQRRGKAPKLLIYDGSKLERGVPARFSGSRWGQEYHLTISSLQPEDVATYFCQVYEFFGPGTRLDLKR", "µg/mL", 2.51),
    ("2.2.15-1 (antibody, human IgG1, kappa, V domains shown) VH: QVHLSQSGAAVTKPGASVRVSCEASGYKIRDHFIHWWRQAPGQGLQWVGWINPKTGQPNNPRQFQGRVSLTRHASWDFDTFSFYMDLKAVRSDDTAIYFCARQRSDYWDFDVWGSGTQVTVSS VL: DIQMTQSPSSLSARVGDTATITCQANGYLNWYQQRRGKAPKLLIYDGSKLERGVPARFSGRRWGQEYTLTINNLQPEDVATYFCQVYEFFGPGTRLDLKR", "µg/mL", 0.37),
    ("1.1.118-1 (antibody, human IgG1, kappa, V domains shown) VH: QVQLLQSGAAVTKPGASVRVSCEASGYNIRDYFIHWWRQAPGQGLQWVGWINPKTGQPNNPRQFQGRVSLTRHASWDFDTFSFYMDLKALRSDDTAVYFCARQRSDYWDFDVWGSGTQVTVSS VL: DIQMTQSPSSLSASVGDRATITCQANGYLNWYQQRRGKAPKLLIYDGSKLERGVPSRFSGSRWGQEYILTISSLQPEDIATYFCQVYEFFGPGTRLDLKR", "µg/mL", 2.4),
]
